Kindly state GI50 for each of the entries shown.
system: LOX IMVI; assay: NCI tumour cell line growth inhibition, 48 h
Activity calls are given as the source filed them. No stated cut-off is given here; in the data, active = GI50 up to about 1.1 µM and inactive = higher. Residues, ends and D or L forms follow the SMILES beside them.

Quick one: GI50 of `O=C(O)Cc1cccnc1` ?
> 100 µM (inactive)

Quick one: GI50 of `COCCOCCOC1=CC(=O)c2c(O)ccc(O)c2C1=O` ?
1.52 µM (inactive)

Quick one: GI50 of CC(=O)NC(CO)C(=O)NC(Cc1ccc(O)cc1)C(=O)NCC(N)=O (stereo not drawn) (Ac-Ser-Tyr-Gly-NH2; configuration not given here) ?
> 100 µM (inactive)

Quick one: GI50 of `CSC1=N/C(=C\c2cccs2)C(=O)N1CN1CCOCC1` ?
33.1 µM (inactive)

Quick one: GI50 of O=C(CCc1ccc(O)cc1)c1c(O)cc(O)cc1OC1OC(CO)C(O)C(O)C1O (stereo unspecified) ?
> 100 µM (inactive)

Quick one: GI50 of O=C(O)C(CCc1ccccc1)N1C(=O)c2ccccc2C1=O (stereo unspecified) ?
> 100 µM (inactive)
